Procedure text: chemical genetic growth profiling, strain panel (AID 1159580);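 further: tested at 20 µM; growth read once vehicle control cultures reached saturation at 30 °C; 1 = growth at the plate median or of vehicle wells; lower values mean less growth of the strain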
Measurement context: S. cerevisiae deletion strains, growth OD, locus YAL030W, strain snc1, hits give low values
The whole screen tested about 5,500 compounds, of which about 2,000 (36%) were called active. Not shown: some 18% with an inconclusive outcome. Some of the results follow.
Measured attribute: normalized growth

INSERT INTO results (compound, measurement) VALUES
  ('CC(C)NC[C@H](O)COc1cccc2ccccc12', 0.986),
  ('CO[C@@]1(NC(=O)CSCC#N)C(=O)N2C(C(=O)O)=C(CSc3nnnn3C)CSC21 (some centres undefined)', 0.988),
  ('C#CCCCCCCCCCCCC(=O)CC(O)COC(C)=O (centres undefined)', 0.983),
  ('CC(C)NCC(O)c1cc(O)cc(O)c1 (centres undefined)', 0.994),
  ('CC(=O)OC1CCC2(C)C(=CC=C3C2CCC2(C)C3CCC2C(C)/C=C/C(C)C(C)C)C1(C)C (centres undefined)', 1.02),
  ('CCN(CC)CCOC(=O)c1ccc(N)cc1', 0.986),
  ('CC1=CC2C(CC1=O)C(C)=CCC2C(C)C (centres undefined)', 1),
  ('O=C(O)CN1C(=O)c2cccc3cccc(c23)C1=O', 0.986),
  ('C=C1C(=O)OC2CC1C(OC(C)=O)C/C(C)=C/CC/C(C)=C/CC[C@]2(C)O (some centres undefined)', 0.984),
  ('Cc1c(S(=O)(=O)O)oc2c1C(=O)C(=O)c1c-2ccc2c1CCCC2(C)C', 0.92),
  ('C#CCCCCCCCCCCCC(O)CC(O)COC(C)=O (centres undefined)', 0.526),
  ('COC(=O)[C@@H]1OC(=O)[C@H]2O[C@@]23[C@@]1(C)CCC1[C@@]2(C)CCC(=O)C(C)(C)C2C[C@@H](OC(C)=O)[C@]13C (some centres undefined)', 0.989),
  ('O=c1[nH]oc2c1CCNC2', 0.998),
  ('COc1ccc([C@H]2Oc3cc(OC)cc(OC)c3C[C@H]2O)cc1', 0.993),
  ('CC(C)NNC(=O)c1ccncc1', 0.997),
  ('Clc1cccc(Cl)c1NC1=NCCN1', 0.993),
  ('CCCCOC(=O)c1ccccc1C(=O)OCCCC', 0.979),
  ('CCCCNc1ccc(C(=O)OCCN(C)C)cc1', 0.999),
  ('C[C@H]1CC[C@@H](C(C)(C)O)CC2=C1CC[C@@H]2C', 0.995),
  ('C=C1CCC(OC(C)=O)/C(C)=C/C[C@@H]2[C@@H]1CC2(C)C (some centres undefined)', 1.01),
  ('CC(C)C(=O)Nc1ccc([N+](=O)[O-])c(C(F)(F)F)c1', 1.02),
  ('O=C(O)CN(CC(=O)O)Cc1cc2c(-c3ccccc3C(=O)O)c3cc(CN(CC(=O)O)CC(=O)O)c(=O)cc-3oc2cc1O', 0.962),
  ('C=C1CCC2C(CC2(C)C)C(=C)CC/C1=N\O (centres undefined)', 1),
  ('CN1C(C(=O)Nc2ccccn2)=C(O)c2ccccc2S1(=O)=O', 0.944),
  ('CC1OC1P(=O)(O)O (centres undefined)', 0.998),
  ('C=CCCCCCCCCCCCC(O)CC(O)COC(C)=O (centres undefined) (tested in a mixture with another compound)', 0.963),
  ('Cc1cc(NC(=O)C2=C(O)c3ccccc3S(=O)(=O)N2C)no1', 0.969),
  ('O=C(O)c1ccccc1-c1c2cc(Br)c(=O)cc-2oc2[c]([Hg])c(O)c(Br)cc12', 1.03),
  ('CCCCN1CCCCC1C(=O)Nc1c(C)cccc1C (centres undefined)', 0.991),
  ('O=S1OCC2C(CO1)C1(Cl)C(Cl)=C(Cl)C2(Cl)C1(Cl)Cl (centres undefined)', 0.993),
  ('C=C1CCC(C2CC(=O)OC2=O)C(=O)CCC2C1CC2(C)C (centres undefined)', 1.01),
  ('C=C1CCC2C(CC2(C)C)C(=O)CCC1O (centres undefined)', 1),
  ('CCCOc1ccc(C(=O)OCCN(CC)CC)cc1N', 1),
  ('CCCCCCOc1ccccc1C(N)=O', 0.939);

----------
Overview of reported normalized growth across a group of molecules:
Procedure text: chemical genetic growth profiling, strain panel (AID 1159580);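 further: tested at 20 µM; growth read once vehicle control cultures reached saturation at 30 °C; 1 = growth at the plate median or of vehicle wells; lower values mean less growth of the strain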
Measurement context: S. cerevisiae deletion strains, growth OD, locus YDR335W, strain msn5, hits give low values
In all, about 5,500 compounds went through this assay and about 2,000 (36%) were called active. Inconclusive results (about 18%) are left out. The list shows a part of the results.
Measured attribute: normalized growth

INSERT INTO results (molecule, measured_attribute, measurement) VALUES
  ('CC(C)C(=O)Nc1ccc([N+](=O)[O-])c(C(F)(F)F)c1', 'normalized growth', 1.03),
  ('C#CCCCCCCCCCCCC(O)CC(O)CO (stereo unspecified)', 'normalized growth', 0.988),
  ('COc1ccc(CCN2CCC(Nc3nc4ccccc4n3Cc3ccc(F)cc3)CC2)cc1', 'normalized growth', 0.959),
  ('COC(=O)C(O)c1ccccc1 (stereo unspecified)', 'normalized growth', 1.01),
  ('O=C1CC2OCC=C3CN4CC[C@]56c7ccccc7N1C5[C@H]2[C@H]3CC46 (stereo partly specified)', 'normalized growth', 1.03),
  ('OC(Cn1cncn1)(Cn1cncn1)c1ccc(F)cc1F', 'normalized growth', 1.01),
  ('COc1ccc([C@H]2Oc3cc(OC)cc(OC)c3C[C@H]2O)cc1', 'normalized growth', 1),
  ('O=C1NC(=O)C(=O)C(=O)N1', 'normalized growth', 0.995),
  ('C#CCCCCCCCCCCCC(=O)CC(O)COC(C)=O (stereo unspecified)', 'normalized growth', 0.973),
  ('CC(=O)N[C@@H](CS)C(=O)O', 'normalized growth', 1.01),
  ('CC1C[C@H]2CC(=O)[C@H]3CCCN4CCC[C@H]2[C@]34C1 (stereo partly specified)', 'normalized growth', 1.01),
  ('C[N+]1(C)C2CC(OC(=O)[C@@H](CO)c3ccccc3)CC1C1OC12 (stereo partly specified)', 'normalized growth', 0.968),
  ('C=CCSCC1Nc2cc(Cl)c(S(N)(=O)=O)cc2S(=O)(=O)N1 (stereo unspecified)', 'normalized growth', 1.01),
  ('CC(C(=O)O)c1ccc(C(=O)c2cccs2)cc1 (stereo unspecified)', 'normalized growth', 1.01),
  ('COc1cc2c(cc1OC)C1Cc3ccc(OC)c(OC)c3CN1CC2 (stereo unspecified)', 'normalized growth', 0.97),
  ('Cc1ccc(C)c(OCCCC(C)(C)C(=O)O)c1', 'normalized growth', 0.989),
  ('Cc1cc(NC(=O)C2=C(O)c3ccccc3S(=O)(=O)N2C)no1', 'normalized growth', 0.964),
  ('O=C1OC(c2ccc(O)cc2)(c2ccc(O)cc2)c2ccccc21', 'normalized growth', 0.97),
  ('COc1ccc2c(c1OC)C(=O)OC2[C@H]1c2c(cc3c(c2OC)OCO3)CCN1C (stereo partly specified)', 'normalized growth', 1.01),
  ('CCN(CC)C(=O)c1cccc(C)c1', 'normalized growth', 1.03),
  ('CC(=O)OC1CCC2(C)C(=CC=C3C2CCC2(C)C3CCC2C(C)/C=C/C(C)C(C)C)C1(C)C (stereo unspecified)', 'normalized growth', 1.02),
  ('OCCOCCN1CCN(C2=Nc3ccccc3Sc3ccccc32)CC1', 'normalized growth', 1.01),
  ('CCC(C)C(=O)O[C@H]1C[C@H](O)C=C2C=C[C@H](C)[C@H](CC[C@@H](O)C[C@@H](O)CC(=O)O)C21 (stereo partly specified)', 'normalized growth', 1.02),
  ('CC(C)C(C)/C=C/C(C)C1CCC2C3=CC=C4CC(O)CCC4(C)C3CCC21C (stereo unspecified)', 'normalized growth', 0.958),
  ('CCC(C)(C)C(=O)O[C@H]1C[C@@H](C)C=C2C=C[C@H](C)[C@H](CC[C@@H]3C[C@@H](O)CC(=O)O3)[C@H]21', 'normalized growth', 0.979),
  ('CN1C(C(=O)Nc2ccccn2)=C(O)c2ccccc2S1(=O)=O', 'normalized growth', 0.97),
  ('O=C(C1CCCCC1)N1CC(=O)N2CCc3ccccc3C2C1 (stereo unspecified)', 'normalized growth', 0.999),
  ('COc1cc([C@@H]2c3cc4c(c(O)c3C[C@H]3COC(=O)[C@@H]32)OCO4)cc(OC)c1OC', 'normalized growth', 1),
  ('CC1OC1P(=O)(O)O (stereo unspecified)', 'normalized growth', 0.996),
  ('Nc1ccc(N=Nc2ccccc2)c(N)n1', 'normalized growth', 0.785),
  ('CC(C)NC[C@H](O)COc1cccc2ccccc12', 'normalized growth', 0.991),
  ('O=C(O)CN1C(=O)c2cccc3cccc(c23)C1=O', 'normalized growth', 0.985),
  ('CCCCCCCCCCCCCCCC(=O)OC1C(SC)OC(C(NC(=O)C2CC(CCC)CN2C)C(C)Cl)C(O)C1O (stereo unspecified)', 'normalized growth', 0.978),
  ('CC1(C)NC(=O)N(c2ccc([N+](=O)[O-])c(C(F)(F)F)c2)C1=O', 'normalized growth', 0.994),
  ('CC[N+](CC)(CC)CCOc1cccc(OCC[N+](CC)(CC)CC)c1OCC[N+](CC)(CC)CC', 'normalized growth', 1.01),
  ('CC1=CC2C(CC1=O)C(C)=CCC2C(C)C (stereo unspecified)', 'normalized growth', 1.01);
